Measured IC50, listed per entry.
assay: Inhibition of soybean lipoxygenase assessed as inhibition of sodium linolate conversion to 13-hydroperoxylinoleic acid after 4 mins by spectrophotometry; parameters: species or system Glycine max; settings: read-out: IC50

>  <STRUCTURE>
O=C1N/C(=N\c2nccs2)S/C1=C\c1cccc(O)c1

>  <IC50>
> 150 µM

$$$$
>  <STRUCTURE>
O=C1N/C(=N\c2nccs2)S/C1=C\c1ccc(F)cc1

>  <IC50>
> 150 µM

$$$$

Prompt line: Could you please provide reported IC50 for O=C1N/C(=N\c2nccs2)S/C1=C\c1cccc(Br)c1 ? Thanks!
Response line: > 150 µM
